biological target: Δnucleolin (Homo sapiens, UniProt P19338 284-710, del1-283); test: SPR; SPR: 25 °C, 1:10 mixture of binding buffer (10 mM Tris-HCl pH 7.5, 150 mM KCl) and HBS-EP (10 mM HEPES pH 7.4, 150 mM NaCl, 3 mM EDTA, 0.005% P20), protein immobilized; pull-down: RNA on streptavidin beads blocked in 10 mM Tris-HCl pH 7.5, 100 mM KCl, 0.1 mM EDTA, 1 mM DTT, 0.01% Triton X-100, BSA, tRNA; extract 1 h at 30 °C, elution 400-2600 mM KCl; details: protein: recombinant; tags: N-terminal His-tag (pET28a); label: biotin; parallel G4, several variants possible
Sequence (P19338 284-710, stated change not applied): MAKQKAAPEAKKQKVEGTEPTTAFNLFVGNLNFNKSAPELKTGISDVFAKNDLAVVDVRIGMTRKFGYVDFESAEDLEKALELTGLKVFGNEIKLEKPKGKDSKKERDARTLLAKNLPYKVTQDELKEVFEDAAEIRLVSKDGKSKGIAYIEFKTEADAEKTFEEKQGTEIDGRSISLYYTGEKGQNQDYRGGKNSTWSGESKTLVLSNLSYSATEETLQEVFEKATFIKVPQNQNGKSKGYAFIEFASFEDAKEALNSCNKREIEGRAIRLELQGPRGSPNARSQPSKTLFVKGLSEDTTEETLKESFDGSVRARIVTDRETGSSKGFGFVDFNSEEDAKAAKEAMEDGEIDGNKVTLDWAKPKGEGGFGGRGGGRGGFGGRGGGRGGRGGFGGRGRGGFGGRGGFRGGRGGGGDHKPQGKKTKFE
Observable: pKd
pKd (log units): -log10 of the concentration in mol/L.

Entry AGCCGGGGGCUGGGCGGGGACCGGGCUUGU (structured_RNA, 3' biotin) [ARPC2 GQ] ; pKd = 9.22
